assay: Biodistribution of the 99mTc(N) heterocomplexes in rats (organ uptake, heart accumulation, heart/lung and heart/liver ratios); assay type: in vivo, female Sprague-Dawley rats; settings: 60 min post injection
Parameter Biodistribution in rats: Spleen: see the listing below.
// return numeric value only (unit: % dose/g, not printed)

> print(dat)
                                   compound         u  recorded.result
1  CCOCCN1CC[P](CCCOC)(CCCOC)[99Tc+]2(#[N])([S]C(N(CCOCC)C(C)C)=[S]2)[P](CCCOC)(CCCOC)CC1 [[^99mTc(N) (PNP5) (ISOET)]^+]  % dose/g             0.73

Form field: reported Biodistribution in rats: Spleen of CCOCCN1CC[P](CCCOC)(CCCOC)[99Tc+]2(#[N])([S]C(N(CCOCC)CCOCC)=[S]2)[P](CCCOC)(CCCOC)CC1 [[^99mTc(N) (PNP5) (DBODC)]^+]
0.41

----------
assay: Biodistribution of the 99mTc(N) heterocomplexes in rats (organ uptake, heart accumulation, heart/lung and heart/liver ratios); type: in vivo, female Sprague-Dawley rats; details: rats, 2 min
measure: Heart/liver ratio in biodistribution

> print(dat)
                                   compound                               measure  recorded.result
1  COCCC[P]1(CCCOC)CCN(CCOC)CC[P](CCCOC)(CCCOC)[99Tc+]12(#[N])[S]C(N(CCOC)CCOC)=[S]2 [[^99m−Tc(N) (PNP3) (DPODC)^+]]  Heart/liver ratio in biodistribution             0.56
2  CCOCCN1CC[P](CCCOC)(CCCOC)[99Tc+]2(#[N])([S]C(N(CCOCC)CCOCC)=[S]2)[P](CCCOC)(CCCOC)CC1 [[^99mTc(N) (PNP5) (DBODC)^+]]  Heart/liver ratio in biodistribution             1.48
3  CCOCCN(CCOCC)C1=[S][99Tc+]2(#[N])([S]1)[P](CCCOC)(CCCOC)CCN(CCOC)CC[P]2(CCCOC)CCCOC [[^99m−Tc(N) (PNP3) (DBODC)^+]]  Heart/liver ratio in biodistribution             1.99
4  CCOCCC[P]1(CCCOCC)CCN(CCOCC)CC[P](CCCOCC)(CCCOCC)[99Tc+]12(#[N])[S]C(N(CCOCC)CCOCC)=[S]2 [[^99mTc(N) (PNP6) (DBODC)^+]]  Heart/liver ratio in biodistribution             0.21

We next turn to a different compound, shown below.
Form field: reported Heart/liver ratio in biodistribution of CCOCCN1CC[P](CCCOC)(CCCOC)[99Tc+]2(#[N])([S]C(N(CCOCC)C(C)C)=[S]2)[P](CCCOC)(CCCOC)CC1 [[^99mTc(N) (PNP5) (ISOET)^+]]
0.83

----------
assay: Biodistribution of the 99mTc(N) heterocomplexes in rats (organ uptake, heart accumulation, heart/lung and heart/liver ratios); type: in vivo, female Sprague-Dawley rats; details: 20 min post injection
Parameter Biodistribution in rats: Lungs: see the listing below.
// return numeric value only (unit: % ID/g, not printed)

> print(dat)
                                   molecule                         measure  recorded.result
1  CCOCCN(CCOCC)C1=[S][99Tc+]2(#[N])([S]1)[P](CCCOC)(CCCOC)CCN(CCOC)CC[P]2(CCCOC)CCCOC [[^99mTc(N) (PNP3) (DBODC)]^+]  Biodistribution in rats: Lungs             0.84

We next turn to a different molecule, shown below.
Form field: reported Biodistribution in rats: Lungs of COCCC[P]1(CCCOC)CCN(CCOC)CC[P](CCCOC)(CCCOC)[99Tc+]12(#[N])[S]C(N(CCOC)CCOC)=[S]2 [[^99mTc(N) (PNP3) (DPODC)]^+]
0.43
